# credit: ChEMBL document CHEMBL6083250

Reported log10(fAUC) values are given for each entry in this list.
# ASSAY_NOTES: Unbound AUC in Wistar Han rat at 1 mg/kg, po at 7 to 24 hrs by LC-MS/MS analysis
# Assay type: ADME, organism-based
# CONDITION_DETAILS: in vivo, time 7-24 hrs
Short version: log10 scale, fAUC, ng·h/mL.

Please review the entries below; each comes with its answer.
> print(dat)
                                   molecule  result.type  measurement
1  COCCOc1cccc([C@H](CC(=O)O)CN2CC(C(F)(F)CCc3ccc4c(n3)NCCC4)C2)c1  log10(fAUC)         1.58
2  COc1cc([C@H](CC(=O)O)CN2CC(C(F)(F)CCc3ccc4c(n3)NCCC4)C2)ccc1F  log10(fAUC)         2.13
3  COc1cc(C(CC(=O)O)CN2CC(C(F)(F)CCc3ccc4c(n3)NCCC4)C2)ccc1F (racemic)  log10(fAUC)         2.33
4  COc1ccc(F)c(C(CC(=O)O)CN2CC(C(F)(F)CCc3ccc4c(n3)NCCC4)C2)c1 (racemic)  log10(fAUC)         2.21
5  COc1ncc(C(CC(=O)O)CN2CC(C(F)(F)CCc3ccc4c(n3)NCCC4)C2)cc1C (racemic)  log10(fAUC)         2.18

Turning now to a further molecule:
Ask: Dear colleague, I am looking for the recorded log10(fAUC) of the following molecule: Cc1cc(C)n(-c2cccc(C(CC(=O)O)CN3CC(C(F)(F)CCc4ccc5c(n4)NCCC5)C3)c2)n1 (racemic)
Reply: -0.22
